- Run Parameters: cell viability/%
Where a SMILES comes first, the peptide text is derived from it. [ ]: non-standard residue; d: D form. The star is where a group is joined. NHCH2CH2OH = OCCN*; For = O=C*
Recorded Metric: viability (%)

Molecule	Endpoint Unit	Recorded Number
CC(C)C[C@@H](NC(=O)[C@H](C)NC(=O)CNC(=O)[C@@H](NC=O)C(C)C)C(=O)N[C@@H](C)C(=O)N[C@H](CC(C)C)C(=O)N[C@H](C(=O)N[C@H](CC(C)C)C(=O)N[C@@H](Cc1c[nH]c2ccccc12)C(=O)N[C@H](CC(C)C)C(=O)N[C@@H](Cc1c[nH]c2ccccc12)C(=O)N[C@@H](C(=O)N[C@@H](Cc1c[nH]c2ccccc12)C(=O)N[C@@H](C(=O)N[C@@H](Cc1c[nH]c2ccccc12)C(=O)NCCO)C(C)C)[C@H](C)O)C(C)C [compound 2346] (For-VGA[dL]A[dL]V[dL]W[dL]W[dT]W[dV]W-NHCH2CH2OH)	%	100
CC(C)C[C@@H](NC(=O)[C@H](C)NC(=O)CNC(=O)[C@@H](NC=O)C(C)C)C(=O)N[C@@H](C)C(=O)N[C@@H](C(=O)N[C@H](C(=O)N[C@@H](C(=O)N[C@@H](Cc1c[nH]c2ccccc12)C(=O)N[C@H](CC(C)C)C(=O)N[C@@H](Cc1c[nH]c2ccccc12)C(=O)N[C@H](CC(C)C)C(=O)N[C@@H](Cc1c[nH]c2ccccc12)C(=O)N[C@@H](C(=O)N[C@@H](Cc1c[nH]c2ccccc12)C(=O)NCCO)C(C)C)C(C)C)C(C)C)[C@H](C)O [compound 13002] (For-VGA[dL]A[dT]V[dV]W[dL]W[dL]W[dV]W-NHCH2CH2OH)	%	98.3

----------
- System: Streptococcus pyogenes SSI-9
- Assay Remarks: Antibacterial activity assay of bead-derived peptides (three concentrations)
- Format: cell-based
- Design: key: +++: inhibition by the 640-fold diluted peptide solution; ++: inhibition by the 160-fold diluted solution; +: inhibition by the 40-fold diluted solution; -: no inhibition
- Run Parameters: S. pyogenes, bead-derived peptide solution, three concentrations
Where a SMILES comes first, the peptide text is derived from it. [ ]: non-standard residue; d: D form. The star is where a group is joined. NHCH2CH2OH = OCCN*; For = O=C*

Compound	antibacterial activity
CC(C)C[C@@H](NC(=O)[C@H](C)NC(=O)CNC(=O)[C@@H](NC=O)C(C)C)C(=O)N[C@@H](C)C(=O)N[C@@H](C(=O)N[C@H](C(=O)N[C@@H](C(=O)N[C@@H](Cc1c[nH]c2ccccc12)C(=O)N[C@H](CC(C)C)C(=O)N[C@@H](Cc1c[nH]c2ccccc12)C(=O)N[C@H](CC(C)C)C(=O)N[C@@H](Cc1c[nH]c2ccccc12)C(=O)N[C@H](CC(C)C)C(=O)N[C@@H](Cc1c[nH]c2ccccc12)C(=O)NCCO)C(C)C)C(C)C)C(C)C [compound 4495] (For-VGA[dL]A[dV]V[dV]W[dL]W[dL]W[dL]W-NHCH2CH2OH)	++
CNC(=O)C[C@@H](NC(=O)[C@@H](NC(=O)[C@@H](CC(C)C)NC(=O)[C@H](C)NC(=O)[C@@H](CC(C)C)NC(=O)[C@H](C)NC(=O)CNC(=O)[C@@H](NC=O)C(C)C)C(C)C)C(=O)N[C@@H](Cc1c[nH]c2ccccc12)C(=O)N[C@@H](C(=O)N[C@@H](Cc1c[nH]c2ccccc12)C(=O)N[C@@H](C(=O)N[C@@H](Cc1c[nH]c2ccccc12)C(=O)N[C@H](CC(C)C)C(=O)N[C@@H](Cc1c[nH]c2ccccc12)C(=O)NCCO)C(C)C)C(C)C [compound 12307] (For-VGA[dL]A[dL]V[dD](NHMe)W[dV]W[dV]W[dL]W-NHCH2CH2OH)	-
